The reported numbers originate from patent US11078213B2.

- experimental target: NPM-ALK-BaF3 (Homo sapiens, UniProt Q9UM73)
- Construct: NPM (nuclear phosphoprotein / nucleophosmin, NPM1, P06748) fusion partner; expressed in transfected cells; host or cells: BaF3; the other entry of the earlier key: NPM1 (P06748, Nucleophosmin)
- Sequence (Q9UM73 with tags, fused parts or gaps): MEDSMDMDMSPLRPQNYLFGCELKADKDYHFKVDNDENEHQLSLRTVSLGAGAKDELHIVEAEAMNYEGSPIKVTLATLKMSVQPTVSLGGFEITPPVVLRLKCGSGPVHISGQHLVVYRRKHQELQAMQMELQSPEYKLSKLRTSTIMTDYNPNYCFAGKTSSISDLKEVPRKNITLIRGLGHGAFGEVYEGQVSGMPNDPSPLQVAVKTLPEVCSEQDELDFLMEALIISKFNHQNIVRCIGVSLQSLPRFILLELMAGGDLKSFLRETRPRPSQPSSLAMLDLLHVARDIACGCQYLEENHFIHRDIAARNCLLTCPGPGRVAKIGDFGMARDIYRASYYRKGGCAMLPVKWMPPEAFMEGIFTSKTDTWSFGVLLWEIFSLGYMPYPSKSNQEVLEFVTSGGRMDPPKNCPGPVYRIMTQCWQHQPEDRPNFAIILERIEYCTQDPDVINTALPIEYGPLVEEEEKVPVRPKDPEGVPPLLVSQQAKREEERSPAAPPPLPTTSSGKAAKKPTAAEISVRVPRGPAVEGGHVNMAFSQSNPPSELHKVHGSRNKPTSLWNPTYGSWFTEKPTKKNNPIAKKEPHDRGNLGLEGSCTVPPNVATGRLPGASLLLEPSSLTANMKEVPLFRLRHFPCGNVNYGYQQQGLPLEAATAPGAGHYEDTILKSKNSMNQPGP
- method notes: Growth inhibition of BaF3 cells stably transfected with kinase NPM-ALK (MTS)
- Type: cell-based
- measurement setup: compound concentration 3.3 μM, read-out: cell growth inhibition rate, NPM-ALK
Lab note: compare inhibition at 3.3 µM against 80%. Equal or greater, write label 1. Smaller, write label 0.

compound	category label
COC(=O)c1ccccc1Sc1nc(Nc2cc(C)c(C3CCN(C)CC3)cc2OC)nc2ccsc12 [IN-7]	label 0
COc1cc(N2CCC(N3CCN(C)CC3)CC2)ccc1Nc1nc(Nc2ccccc2S(=O)(=O)C(C)C)c2sccc2n1 [IB-2]	label 1
COc1cc(N2CCC(N(C)C)CC2)ccc1Nc1nc(Nc2ccccc2P(C)(C)=O)c2sccc2n1 [IK-6]	label 1
COc1cc(N2CCC(N3CCN(C)CC3)CC2)ccc1Nc1nc(Nc2cn(C)nc2S(=O)(=O)C(C)C)c2sccc2n1 [IC-2]	label 0
COc1cc(N2CCC(N3CCN(C)CC3)CC2)ccc1Nc1nc(NCc2ccccc2S(=O)(=O)C(C)C)c2sccc2n1 [IM-2]	label 0
COc1cc(N2CCC(N3CCCC3)CC2)ccc1Nc1nc(Nc2ccccc2S(=O)(=O)C(C)C)c2sccc2n1 [IB-7]	label 1
CC(C)S(=O)(=O)c1ccccc1Nc1nc(Nc2ccc(N3CCOCC3)cc2)nc2ccsc12 [IB-15]	label 1
COc1cc(N2CCC(O)CC2)ccc1Nc1nc(Nc2ccccc2S(=O)(=O)C(C)C)c2sccc2n1 [IB-19]	label 1
